Tgt: CaMK1 (human) (UniProt Q14012)
Sequence (Q14012 whole entry, looked up): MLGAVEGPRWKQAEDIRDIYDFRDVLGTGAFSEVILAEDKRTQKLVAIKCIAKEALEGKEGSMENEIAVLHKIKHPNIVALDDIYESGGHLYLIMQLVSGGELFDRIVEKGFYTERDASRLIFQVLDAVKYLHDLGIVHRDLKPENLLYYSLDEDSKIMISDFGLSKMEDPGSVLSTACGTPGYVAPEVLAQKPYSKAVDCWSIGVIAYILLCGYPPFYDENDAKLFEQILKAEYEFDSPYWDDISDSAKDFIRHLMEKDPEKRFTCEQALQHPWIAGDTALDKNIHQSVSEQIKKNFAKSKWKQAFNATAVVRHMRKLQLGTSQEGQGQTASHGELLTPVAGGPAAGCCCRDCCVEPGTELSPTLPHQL
Assay summary: radiometric filter-binding kinase assay
Assay setup: compound 1.0 µM
Listed next: entries and their corresponding residual activity.
Your answer should be a plain number; it is taken to be in %.

                              record_smiles  endpoint_value
0  CN(C)C/C=C/C(=O)Nc1cccc(C(=O)Nc2ccc(Nc3nccc(-c4cccnc4)n3)cc2)c1              92
1                           CCCC(CCC)C(=O)O              89

Now look at this one.
// query What value of measured residual activity is listed for "NC(=O)c1cc2c(-c3cccc(-c4ccccc4)c3)cnc(N)c2s1" ?
// result 90

---

Tgt: MAPK15 (human) (UniProt Q8TD08)
Sequence (Q8TD08 whole entry, looked up): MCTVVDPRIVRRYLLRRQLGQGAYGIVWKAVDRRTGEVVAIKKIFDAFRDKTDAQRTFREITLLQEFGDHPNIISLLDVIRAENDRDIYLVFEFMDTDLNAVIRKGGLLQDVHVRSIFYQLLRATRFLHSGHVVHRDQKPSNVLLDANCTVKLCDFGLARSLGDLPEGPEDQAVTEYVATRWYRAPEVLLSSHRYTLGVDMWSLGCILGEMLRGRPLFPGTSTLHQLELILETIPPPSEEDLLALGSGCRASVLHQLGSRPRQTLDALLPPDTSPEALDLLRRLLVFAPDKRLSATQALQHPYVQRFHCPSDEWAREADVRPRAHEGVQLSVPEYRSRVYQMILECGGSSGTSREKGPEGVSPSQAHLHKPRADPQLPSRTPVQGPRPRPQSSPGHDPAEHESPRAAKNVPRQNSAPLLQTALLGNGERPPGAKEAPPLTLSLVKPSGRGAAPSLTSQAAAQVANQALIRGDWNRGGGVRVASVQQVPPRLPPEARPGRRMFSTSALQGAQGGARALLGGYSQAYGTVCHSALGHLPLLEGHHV
Assay summary: radiometric filter-binding kinase assay
Assay setup: compound 10.0 µM
Field: label. Allowed values: Condition met (residual activity < 90%) or Condition not met (residual activity >= 90%).

                                   molecule                              tgt    label_value
0  O=C(Nc1ccccc1-c1cn2c(CN3CCNCC3)csc2n1)c1cnc2ccccc2n1  MAPK15 (human) (UniProt Q8TD08)  Condition met

// query residual activity under 90%? Item: "NC(=O)Nc1ccc2c(c1)/C(=C/c1cc(-c3cccnc3)c[nH]1)C(=O)N2"
// result Condition met

// query residual activity under 90%? Item: "CCCC(CCC)C(=O)O"
// result Condition met

---

Tgt: BRSK1 (human)
Assay summary: radiometric filter-binding kinase assay
Assay setup: compound 10.0 µM
Parameter measured: residual activity (%)
Your answer should be a plain number; it is taken to be in %.

Molecule	Tgt	Measurement unit	residual activity
CC1=C(CO)C(=O)O[C@@H]([C@@H](C)[C@H]2CC[C@H]3[C@@H]4C[C@H]5O[C@]56[C@@H](O)C=CC(=O)[C@]6(C)C4CC[C@]23C)C1 (stereo partly drawn)	BRSK1 (human)	%	91
CC(C)C[C@H](NC(=O)CNC(=O)c1cc(Cl)ccc1Cl)B1OC(=O)CC(CC(=O)O)(C(=O)O)O1 (stereo partly drawn)	BRSK1 (human)	%	90
COc1cc(C(=O)N2CCOCC2)c(F)cc1Nc1ncc(C(F)(F)F)c(NC2CC2)n1	BRSK1 (human)	%	69

// query What value of measured residual activity is listed for "O=C(O)c1cc(N=Nc2ccc(S(=O)(=O)Nc3ccccn3)cc2)ccc1O" ?
// result 92

// query What value of measured residual activity is listed for "O=C(NOC[C@H](O)CO)c1ccc(F)c(F)c1Nc1ccc(I)cc1Cl" ?
// result 112

// query What value of measured residual activity is listed for "NC(=O)c1cc(-c2ccnc(NC3CCCCC3)c2)nc(N2CCNCC2)c1" ?
// result 26

// query What value of measured residual activity is listed for "Cc1ccc(Sc2cnc(Nc3cccc(Br)n3)s2)cc1C(=O)N1CCN(C(=O)CN)CC1" ?
// result 41

// query What value of measured residual activity is listed for "CC(C)(C#N)c1ccc(N2C(=O)OCc3cnc4ccc(-c5cnc6ccccc6c5)cc4c32)cc1" ?
// result 86

---

Listed next: entries and their corresponding residual activity.
Tgt: MAPK14 (human) (UniProt Q16539)
Sequence (Q16539 whole entry, looked up): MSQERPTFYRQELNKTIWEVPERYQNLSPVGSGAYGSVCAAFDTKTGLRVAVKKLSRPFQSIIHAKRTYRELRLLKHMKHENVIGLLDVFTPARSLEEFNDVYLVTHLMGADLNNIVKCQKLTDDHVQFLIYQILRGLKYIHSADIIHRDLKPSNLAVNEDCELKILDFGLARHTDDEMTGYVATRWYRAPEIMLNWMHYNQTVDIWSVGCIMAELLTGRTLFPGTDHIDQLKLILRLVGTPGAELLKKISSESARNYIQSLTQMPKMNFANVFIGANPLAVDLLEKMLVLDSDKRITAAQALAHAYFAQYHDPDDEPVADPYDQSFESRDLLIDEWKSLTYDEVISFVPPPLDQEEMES
Assay summary: radiometric filter-binding kinase assay
Assay setup: compound 1.0 µM
Your answer should be a plain number; it is taken to be in %.

Take a look at these entries with their results.
Molecule	Measurement unit	residual activity
Cn1c(=O)c2c(ncn2C)n(C)c1=O	%	89
CCNc1nc(Nc2cc(F)c(C(=O)N3CCOCC3)cc2OC)ncc1C(F)(F)F	%	89
CC1=C(CO)C(=O)O[C@@H]([C@@H](C)[C@H]2CC[C@H]3[C@@H]4C[C@H]5O[C@]56[C@@H](O)C=CC(=O)[C@]6(C)C4CC[C@]23C)C1 (stereo not given in full)	%	92

// query What value of measured residual activity is listed for "O=C(Nc1ccccc1-c1cn2c(CN3CCNCC3)csc2n1)c1cnc2ccccc2n1" ?
// result 91

// query What value of measured residual activity is listed for "COc1cc2ncn(-c3cc(OCc4ccccc4S(C)(=O)=O)c(C#N)s3)c2cc1OC" ?
// result 91

The reported measurements were obtained from the kinase profiling compilation of Christmann-Franck et al. (2016).
